B1: Histone-lysine N-methyltransferase SETD2, residues 2382 to 2430; numbered along this chain, Q9BYW2 (parent)
chain: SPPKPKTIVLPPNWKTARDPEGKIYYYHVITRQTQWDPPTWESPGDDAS

Variants of: B1
Assay: abundance fitness (aPCA) (normalised: wild type 0, dead -1); higher = more abundant; growth selection in yeast, the domain comes from the species named
Details: Homo sapiens
Threshold rule: abundance fitness greater than or equal to -0.3 is T; below that, F.

Request: Exam item: decide whether the reported abundance fitness for SPPKPKTIVLPPNWKTAEDPEGKIYYYHVITRQTQWDPPTWESPGDDAS [R18E] is at least -0.3.
Response: T

Request: Exam item: decide whether the reported abundance fitness for SPPKPKTIVLPPNWKTARDPEGKIYYYHVITRQTQWDPPTWESMGDDAS [P44M] is at least -0.3.
Response: T

Request: Exam item: decide whether the reported abundance fitness for VPPKPKTIVLPPNWKTARDPEGKIYYYHVITRQTQWDPPTWESPGDDAS [S1V] is at least -0.3.
Response: T

Request: Exam item: decide whether the reported abundance fitness for SPPKPKTIVLPPNWKTARDPEGKIYYYHVITRPTQWDPPTWESPGDDAS [Q33P] is at least -0.3.
Response: F

Request: Exam item: decide whether the reported abundance fitness for SPPKPKTIVLPPNWKTARDPEGKIYYYHVINRQTQWDPPTWESPGDDAS [T31N] is at least -0.3.
Response: F

Request: Exam item: decide whether the reported abundance fitness for SPPKPKTIVLPPNWKTCRDPEGKIYYYHVITRQTQWDPPTWESPGDDAS [A17C] is at least -0.3.
Response: T

Request: Exam item: decide whether the reported abundance fitness for SPPKPKTIVLPPNWKTARDPEGSIYYYHVITRQTQWDPPTWESPGDDAS [K23S] is at least -0.3.
Response: T

Request: Exam item: decide whether the reported abundance fitness for SPPQPKTIVLPPNWKTARDPEGKIYYYHVITRQTQWDPPTWESPGDDAS [K4Q] is at least -0.3.
Response: F

Request: Exam item: decide whether the reported abundance fitness for SPPKPKTIVLPPNWKTARDPEGKIYYYHVITRQNQWDPPTWESPGDDAS [T34N] is at least -0.3.
Response: F

Request: Exam item: decide whether the reported abundance fitness for SPPKGKTIVLPPNWKTARDPEGKIYYYHVITRQTQWDPPTWESPGDDAS [P5G] is at least -0.3.
Response: T

Request: Exam item: decide whether the reported abundance fitness for SPPKPKTIVLPPNWKTARDPEGKIYYWHVITRQTQWDPPTWESPGDDAS [Y27W] is at least -0.3.
Response: T

Request: Exam item: decide whether the reported abundance fitness for SPPKPKTIVLPPNWKSARDPEGKIYYYHVITRQTQWDPPTWESPGDDAS [T16S] is at least -0.3.
Response: T

Request: Exam item: decide whether the reported abundance fitness for SPPKPKTIVLPPNWKTARDPEGKIYYYHVITRQPQWDPPTWESPGDDAS [T34P] is at least -0.3.
Response: T

Request: Exam item: decide whether the reported abundance fitness for SPPKPKTIVLPPNWKTARDPEGAIYYYHVITRQTQWDPPTWESPGDDAS [K23A] is at least -0.3.
Response: T

Request: Exam item: decide whether the reported abundance fitness for SPPKPKTIVLPPNWKTARDPEGKIYYYHVITRQTQWVPPTWESPGDDAS [D37V] is at least -0.3.
Response: T

Request: Exam item: decide whether the reported abundance fitness for SPPKPKTIVLPPNWKTARDPEGKIYYYHVITRQTQWDPPCWESPGDDAS [T40C] is at least -0.3.
Response: T

Request: Exam item: decide whether the reported abundance fitness for SPPKPKTIVLPPNWKTARDPEGKIYYYHVITRQTQWDPPTWESPGDCAS [D47C] is at least -0.3.
Response: T

Request: Exam item: decide whether the reported abundance fitness for SPPKPKTIVLPPNWKTARDPEGKIYYYHVITRQTQWDPPTEESPGDDAS [W41E] is at least -0.3.
Response: T

Request: Exam item: decide whether the reported abundance fitness for SPPKPKTIVLPPPWKTARDPEGKIYYYHVITRQTQWDPPTWESPGDDAS [N13P] is at least -0.3.
Response: F

Request: Exam item: decide whether the reported abundance fitness for SPPKPKTIVLPPNWKTARDPEGKIYYYHVITRQTQWDPPTWEKPGDDAS [S43K] is at least -0.3.
Response: T

Request: Exam item: decide whether the reported abundance fitness for SPPKPKTIVLPPNWKTARDPEGKIYYYFVITRQTQWDPPTWESPGDDAS [H28F] is at least -0.3.
Response: F

Hello, the source for this data is the Human Domainome abundance scans (Beltran et al. 2025), in case you need it.
